test: MTT cytotoxicity assay, HF-P4; type: cell-based, human; details: human, HF-P4 normal human dermal fibroblasts, HF-P4, 2.5 uM, repeats, read-out: Cell viability %
Measured viability at 48 h, 2.5 µM values are reported for all entries that follow.
assay.readout: viability at 48 h, 2.5 µM (%)

INSERT INTO results (smiles_notation, assay_value) VALUES
  ('Cc1ccc(-n2c(-c3ccc(C(=O)N/N=C/c4ccccc4O)cc3)cc3c2cc(-c2ccc(C(=O)N/N=C/c4ccccc4O)cc2)n3-c2ccc(C)cc2)cc1', 94.5),
  ('COc1cccc(/C=N/NC(=O)c2ccc(-c3cc4c(cc(-c5ccc(C(=O)N/N=C/c6cccc(OC)c6O)cc5)n4-c4ccc(C)cc4)n3-c3ccc(C)cc3)cc2)c1O', 96.8),
  ('Cc1ccc(-n2c(-c3ccc(C(=O)NN)cc3)cc3c2cc(-c2ccc(C(=O)NN)cc2)n3-c2ccc(C)cc2)cc1', 94.3),
  ('Cc1ccc(-n2c(-c3ccc(C(=O)N/N=C/c4ccc(O)cc4O)cc3)cc3c2cc(-c2ccc(C(=O)N/N=C/c4ccc(O)cc4O)cc2)n3-c2ccc(C)cc2)cc1', 74.5),
  ('Cc1ccc(-n2c(-c3ccc(C(=O)N/N=C/c4cc(F)ccc4O)cc3)cc3c2cc(-c2ccc(C(=O)N/N=C/c4cc(F)ccc4O)cc2)n3-c2ccc(C)cc2)cc1', 87.1);

* * *

experiment: MTT cytotoxicity assay, HF-P4; assay type: cell-based, human; settings: human, HF-P4 normal human dermal fibroblasts, HF-P4, 10 uM, repeats, read-out: Cell viability %
assay.readout: viability at 48 h, 10 µM

INSERT INTO results (smiles_notation, assay_value) VALUES
  ('Cc1ccc(-n2c(-c3ccc(C(=O)N/N=C/c4cc(F)ccc4O)cc3)cc3c2cc(-c2ccc(C(=O)N/N=C/c4cc(F)ccc4O)cc2)n3-c2ccc(C)cc2)cc1', '82.6%'),
  ('Cc1ccc(-n2c(-c3ccc(C(=O)N/N=C/c4ccccc4O)cc3)cc3c2cc(-c2ccc(C(=O)N/N=C/c4ccccc4O)cc2)n3-c2ccc(C)cc2)cc1', '66.1%'),
  ('Cc1ccc(-n2c(-c3ccc(C(=O)NN)cc3)cc3c2cc(-c2ccc(C(=O)NN)cc2)n3-c2ccc(C)cc2)cc1', '70.5%'),
  ('COc1cccc(/C=N/NC(=O)c2ccc(-c3cc4c(cc(-c5ccc(C(=O)N/N=C/c6cccc(OC)c6O)cc5)n4-c4ccc(C)cc4)n3-c3ccc(C)cc3)cc2)c1O', '76.7%'),
  ('Cc1ccc(-n2c(-c3ccc(C(=O)N/N=C/c4ccc(O)cc4O)cc3)cc3c2cc(-c2ccc(C(=O)N/N=C/c4ccc(O)cc4O)cc2)n3-c2ccc(C)cc2)cc1', '59.9%'),
  ('CCN(CC)c1ccc(/C=N/NC(=O)c2ccc(-c3cc4c(cc(-c5ccc(C(=O)N/N=C/c6ccc(N(CC)CC)cc6O)cc5)n4-c4ccc(C)cc4)n3-c3ccc(C)cc3)cc2)c(O)c1', '83.1%');

* * *

assay: MTT cytotoxicity assay, HF-P4; format: cell-based, human; details: human, HF-P4 normal human dermal fibroblasts, HF-P4, 1 uM, repeats, read-out: Cell viability %
assay.readout: viability at 48 h, 1 µM (%)

INSERT INTO assay_data (smiles_notation, scale_unit, assay_value) VALUES
  ('COc1cccc(/C=N/NC(=O)c2ccc(-c3cc4c(cc(-c5ccc(C(=O)N/N=C/c6cccc(OC)c6O)cc5)n4-c4ccc(C)cc4)n3-c3ccc(C)cc3)cc2)c1O', '%', 105),
  ('Cc1ccc(-n2c(-c3ccc(C(=O)N/N=C/c4ccc(O)cc4O)cc3)cc3c2cc(-c2ccc(C(=O)N/N=C/c4ccc(O)cc4O)cc2)n3-c2ccc(C)cc2)cc1', '%', 86),
  ('CCN(CC)c1ccc(/C=N/NC(=O)c2ccc(-c3cc4c(cc(-c5ccc(C(=O)N/N=C/c6ccc(N(CC)CC)cc6O)cc5)n4-c4ccc(C)cc4)n3-c3ccc(C)cc3)cc2)c(O)c1', '%', 107),
  ('Cc1ccc(-n2c(-c3ccc(C(=O)NN)cc3)cc3c2cc(-c2ccc(C(=O)NN)cc2)n3-c2ccc(C)cc2)cc1', '%', 105),
  ('Cc1ccc(-n2c(-c3ccc(C(=O)N/N=C/c4ccccc4O)cc3)cc3c2cc(-c2ccc(C(=O)N/N=C/c4ccccc4O)cc2)n3-c2ccc(C)cc2)cc1', '%', 84.4),
  ('Cc1ccc(-n2c(-c3ccc(C(=O)N/N=C/c4cc(F)ccc4O)cc3)cc3c2cc(-c2ccc(C(=O)N/N=C/c4cc(F)ccc4O)cc2)n3-c2ccc(C)cc2)cc1', '%', 100);
